Biological target: GAK (Homo sapiens, UniProt O14976)
Construct: catalytic domain-containing construct
Sequence (O14976 1-1311): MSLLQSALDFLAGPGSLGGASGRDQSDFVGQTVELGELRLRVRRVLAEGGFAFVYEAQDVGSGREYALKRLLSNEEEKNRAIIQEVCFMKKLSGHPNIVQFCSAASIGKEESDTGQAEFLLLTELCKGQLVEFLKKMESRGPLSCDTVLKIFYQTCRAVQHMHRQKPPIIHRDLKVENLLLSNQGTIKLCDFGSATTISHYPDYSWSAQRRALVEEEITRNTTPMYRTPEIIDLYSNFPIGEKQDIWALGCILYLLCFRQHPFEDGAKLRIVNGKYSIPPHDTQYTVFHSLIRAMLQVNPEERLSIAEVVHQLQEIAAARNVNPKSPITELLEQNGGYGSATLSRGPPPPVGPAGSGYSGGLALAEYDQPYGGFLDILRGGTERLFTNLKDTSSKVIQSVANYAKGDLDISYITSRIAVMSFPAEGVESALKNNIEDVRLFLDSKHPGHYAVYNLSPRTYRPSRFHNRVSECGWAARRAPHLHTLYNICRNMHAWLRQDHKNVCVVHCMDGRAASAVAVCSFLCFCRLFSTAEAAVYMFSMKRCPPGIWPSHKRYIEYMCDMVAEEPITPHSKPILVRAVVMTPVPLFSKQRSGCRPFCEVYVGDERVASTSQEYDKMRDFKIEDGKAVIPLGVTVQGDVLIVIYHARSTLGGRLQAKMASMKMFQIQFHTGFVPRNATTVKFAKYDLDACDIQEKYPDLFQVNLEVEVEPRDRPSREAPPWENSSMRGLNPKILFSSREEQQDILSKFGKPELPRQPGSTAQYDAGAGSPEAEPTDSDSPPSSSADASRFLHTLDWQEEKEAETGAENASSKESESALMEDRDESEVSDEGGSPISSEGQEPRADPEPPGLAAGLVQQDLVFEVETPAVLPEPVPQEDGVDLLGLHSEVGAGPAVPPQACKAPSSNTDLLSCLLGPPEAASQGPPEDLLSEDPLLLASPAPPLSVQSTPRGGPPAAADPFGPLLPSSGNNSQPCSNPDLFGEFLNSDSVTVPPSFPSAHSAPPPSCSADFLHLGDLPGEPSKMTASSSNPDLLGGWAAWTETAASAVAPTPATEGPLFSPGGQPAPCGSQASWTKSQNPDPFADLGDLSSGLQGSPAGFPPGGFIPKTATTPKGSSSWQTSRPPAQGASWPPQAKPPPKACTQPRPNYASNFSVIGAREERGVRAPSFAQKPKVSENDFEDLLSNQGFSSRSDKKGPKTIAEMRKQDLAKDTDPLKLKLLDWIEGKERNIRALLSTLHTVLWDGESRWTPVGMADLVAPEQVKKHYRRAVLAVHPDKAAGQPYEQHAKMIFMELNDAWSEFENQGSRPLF
Assay: biochemical
Design: Thermal shift assay (DSF, SYPRO Orange), 2 uM kinase domain, mean delta Tm of triplicates versus DMSO
Conditions: read-out: GAK
Rule: measured ΔTm at 12.5 µM below -0.05 °C gets 1; anything equal to or greater than -0.05 °C gets 0.

In [3]: df
Out[3]:
                                   compound  discrete_label
0  O=C1NC(=O)[C@@H](c2cn3c4c(cccc24)CCC3)[C@@H]1c1c[nH]c2ccccc12 [Tivantinib]               1
1  COc1cc2nccc(Oc3ccc(NC(=O)C4(C(=O)Nc5ccc(F)cc5)CC4)cc3)c2cc1OC [Cabozantinib]               0
2    Nc1ncnc2c1c(COc1cccc(Cl)c1)nn2C1CCOCC1               1
3  C#Cc1cccc(Nc2ncnc3cc(OCCOC)c(OCCOC)cc23)c1               0
4  Cc1cnc(Nc2ccc(OCCN3CCCC3)cc2)nc1Nc1cccc(S(=O)(=O)NC(C)(C)C)c1               0

Query block: Strictly below -0.05 °C: is that where ΔTm at 12.5 µM of CC1(C)CNc2cc(NC(=O)c3cccnc3NCc3ccncc3)ccc21 sits?
Result block: 0

Query block: Strictly below -0.05 °C: is that where ΔTm at 12.5 µM of C=CC(=O)N1CCC[C@@H](n2nc(-c3ccc(Oc4ccccc4)cc3)c3c(N)ncnc32)C1 sits?
Result block: 1

Query block: Strictly below -0.05 °C: is that where ΔTm at 12.5 µM of O=S(=O)(c1cccc2cnccc12)N1CCCNCC1 sits?
Result block: 0

Query block: Strictly below -0.05 °C: is that where ΔTm at 12.5 µM of Cc1c(CN2CCN(C(=O)[C@H](C)O)CC2)sc2c(N3CCOCC3)nc(-c3cnc(N)nc3)nc12 sits?
Result block: 0

Query block: Strictly below -0.05 °C: is that where ΔTm at 12.5 µM of COc1cc(N2CCC(N3CCN(C)CC3)CC2)ccc1Nc1ncnc(Nc2ccccc2S(=O)(=O)C(C)C)n1 sits?
Result block: 0

Query block: Strictly below -0.05 °C: is that where ΔTm at 12.5 µM of NC(=O)Nc1cc(-c2cccc(F)c2)sc1C(=O)N[C@H]1CCCNC1 sits?
Result block: 0

Query block: Strictly below -0.05 °C: is that where ΔTm at 12.5 µM of CNC(=O)c1nn(C)c2c1C(C)(C)Cc1cnc(Nc3ccc(N4CCN(C)CC4)cc3)nc1-2 sits?
Result block: 0

Query block: Strictly below -0.05 °C: is that where ΔTm at 12.5 µM of Cc1cc(C(=O)NOCCO)c(Nc2ccc(I)cc2F)n(C)c1=O sits?
Result block: 1

Query block: Strictly below -0.05 °C: is that where ΔTm at 12.5 µM of CCn1c(-c2nonc2N)nc2cnc(Oc3cccc(NC(=O)c4ccc(OCCN5CCOCC5)cc4)c3)cc21 sits?
Result block: 0

Query block: Strictly below -0.05 °C: is that where ΔTm at 12.5 µM of CN(C)C/C=C/C(=O)Nc1cc2c(Nc3ccc(F)c(Cl)c3)ncnc2cc1O[C@H]1CCOC1 sits?
Result block: 0

Query block: Strictly below -0.05 °C: is that where ΔTm at 12.5 µM of COc1cc(F)c(F)c(Nc2ccc(I)cc2F)c1NS(=O)(=O)C1(C[C@H](O)CO)CC1 sits?
Result block: 1

---

Molecular target: MPSK1 (Homo sapiens, UniProt O75716)
Construct: gene STK16; catalytic domain-containing construct
Sequence (O75716 whole entry, the tested form may be a part): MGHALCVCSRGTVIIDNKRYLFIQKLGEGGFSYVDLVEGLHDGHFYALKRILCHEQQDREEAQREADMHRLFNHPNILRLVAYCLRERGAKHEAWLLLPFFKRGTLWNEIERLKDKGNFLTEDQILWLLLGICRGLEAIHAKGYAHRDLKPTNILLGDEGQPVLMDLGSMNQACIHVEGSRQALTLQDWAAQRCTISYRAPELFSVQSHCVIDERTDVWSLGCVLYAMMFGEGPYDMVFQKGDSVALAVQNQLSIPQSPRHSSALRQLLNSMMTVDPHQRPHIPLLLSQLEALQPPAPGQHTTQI
Assay: biochemical
Set-up: Thermal shift assay (DSF, SYPRO Orange), 2 uM kinase domain, mean delta Tm of triplicates versus DMSO
Conditions: read-out: MPSK1
Measured ΔTm at 12.5 µM by item
The reply should be a number in °C, with the unit left off.

Consider the reported ΔTm at 12.5 µM for these molecules:
>>> print(df.to_string())
                                   molecule  test_value
0  CC1(C)CNc2cc(NC(=O)c3cccnc3NCc3ccncc3)ccc21 [Motesanib]         0.7
1  COc1cc2c(Oc3ccc(NC(=O)C4(C(=O)Nc5ccc(F)cc5)CC4)cc3F)ccnc2cc1OCCCN1CCOCC1 [Foretinib]        1.87
2  Cc1cc(C(C)Nc2ccccc2)c2nc(N3CCOCC3)cc(=O)n2c1 (stereo not shown) [TGX-221]        1.43

Query block: What ΔTm at 12.5 µM value was documented for this molecule, CCc1cc(Nc2nccc(-c3c(-c4ccc(OC)c(C(=O)Nc5c(F)cccc5F)c4)nc4ccccn34)n2)c(OC)cc1N1CCC(N2CCN(S(C)(=O)=O)CC2)CC1 [GSK1904529A] ?
Result block: -0.0133

Query block: What ΔTm at 12.5 µM value was documented for this molecule, CCN(CC)CCNC(=O)c1c(C)[nH]c(/C=C2\C(=O)Nc3ccc(F)cc32)c1C [Sunitinib] ?
Result block: 6.79

Query block: What ΔTm at 12.5 µM value was documented for this molecule, COc1cc2c(Oc3ccc4[nH]c(C)cc4c3F)ncnc2cc1OCCCN1CCCC1 [Cediranib] ?
Result block: 1.03

Query block: What ΔTm at 12.5 µM value was documented for this molecule, CC(=O)c1c(C)c2cnc(Nc3ccc(N4CCNCC4)cn3)nc2n(C2CCCC2)c1=O [Palbociclib] ?
Result block: 7.72

Query block: What ΔTm at 12.5 µM value was documented for this molecule, Cc1cnc(NC(=O)Nc2cc(Br)c(C)cc2OC[C@@H]2CNCCO2)cn1 [Rabusertib] ?
Result block: 2.49

Query block: What ΔTm at 12.5 µM value was documented for this molecule, CNC(=O)c1cccc(-c2ccc3c(N4CCOC[C@@H]4C)nc(N4CCOC[C@@H]4C)nc3n2)c1 [AZD2014] ?
Result block: 1.12

Query block: What ΔTm at 12.5 µM value was documented for this molecule, C[C@@H]1CCN(C(=O)CC#N)C[C@@H]1N(C)c1ncnc2[nH]ccc12 [Tofacitinib] ?
Result block: 1.35

Query block: What ΔTm at 12.5 µM value was documented for this molecule, COc1cc(Nc2ncc(F)c(Nc3ccc4c(n3)NC(=O)C(C)(C)O4)n2)cc(OC)c1OC [Tamatinib] ?
Result block: 14.1

Query block: What ΔTm at 12.5 µM value was documented for this molecule, C[C@]1(O)C[C@@H](c2nc(-c3ccc4ccc(-c5ccccc5)nc4c3)c3c(N)nccn32)C1 [Linsitinib] ?
Result block: 0.73

Query block: What ΔTm at 12.5 µM value was documented for this molecule, CNC(=O)c1cc(Oc2ccc(NC(=O)Nc3ccc(Cl)c(C(F)(F)F)c3)c(F)c2)ccn1 [Regorafenib] ?
Result block: 0.88

Query block: What ΔTm at 12.5 µM value was documented for this molecule, CN1CC[C@H](c2c(O)cc(O)c3c(=O)cc(-c4ccccc4Cl)oc23)[C@H](O)C1 [Alvocidib] ?
Result block: 1.55

Query block: What ΔTm at 12.5 µM value was documented for this molecule, CNC(=O)c1c(F)cccc1Nc1nc(Nc2cc3c(ccn3C(=O)CN(C)C)cc2OC)nc2[nH]ccc12 [GSK1838705A] ?
Result block: 1.27

Query block: What ΔTm at 12.5 µM value was documented for this molecule, CNC(=O)c1cc(Oc2ccc(NC(=O)Nc3cc(C(C)(C)C)nn3-c3ccc4ncccc4c3)c(F)c2)ccn1 [Rebastinib] ?
Result block: 0.907
